tested on: MS2 coat protein; experiment: apparent KD of MS2 coat protein; designed switch direction (-1 OFF switch, 1 ON switch): -1; higher = weaker reporter binding; conditions: input ligand: FMN 200 uM
RESULT TYPE: apparent KD of MS2 coat protein (µM)

SEQUENCE DATA	TARGET ENTITY	OBSERVED VALUE
GCACGGUUGCUAGGAUAUCCUUGCGAUUAGCAAGGAGAAGGAGCACAUGAGGAUCACCCAUGUACCUCAAUAAUCCUUCCGUGC [Eli exng1 - 028] (Eterna round: R96, puzzle: Exclusion NG 1)	MS2 coat protein	0.0129
CCUAGUUGGUAAGGAUAUCCUACACUGUUCUGACCCGUGCAAGCUACAUGAGGAUCACCCAUGUGGGAGAAGGUGCGUCAACGC [Design 12] (Eterna round: R96, puzzle: Exclusion NG 2)	MS2 coat protein	0.029
GCUUCUGGGCAAGGAUAUCCUGCGCUGUUCUGGUUCGUGUCUGUCACAUGAGGAUCACCCAUGUGGGAGAAGGUGCCUGUGGUG [Design 69] (Eterna round: R96, puzzle: Exclusion NG 2)	MS2 coat protein	0.0187
UUAUAACAUGUAGGAUAUGCGUGGCGAAGCUAUGCAGAAGGACAUGAGGAUCACCCAUGUUCCUGCGUCCGCGUACGGAUGCAA [JL Eng1 1.21 mod 1] (Eterna round: R96, puzzle: Exclusion NG 1)	MS2 coat protein	0.0341
GCACUGGCAGGAUAUACAUGAGGAUCACCCAUGUGAUCCCUUAGGUACAAAAGUACCAGUAGAAGGGCCUGUGC [Omei Ex3 Model Bachelor's Dilema v50] (Eterna round: R97, puzzle: Exclusion 3)	MS2 coat protein	0.315
CAGUCCGUUUGAGGAUAUCUCUGGAUCGCCAUGAGAGAAGGCAAACAUGAGGAUCACCCAUGUGGUACCGACUCAACGUCGACA [Eternabot solution 10] (Eterna round: R96, puzzle: Exclusion NG 1)	MS2 coat protein	0.0207
AAAUAACGAGGAUAUAGGGUCCGGAACAUGAGGAUCACCCAUGUAUUGGAAACAACGUGGUUAGAAGGCGUUGCCC [EX5 A.15] (Eterna round: R97, puzzle: Exclusion 5)	MS2 coat protein	0.0256
AGUAACUAUCACGAAAGUGAUAGUUACAGCAAGUGAUAAACAUGAGGAUCACCCAUGUCCUCAUUUGCUCGUCUUAU [Sensor 3 - 12] (Eterna round: R96, puzzle: Sensor v3, turn-off variant 2)	MS2 coat protein	0.015
AUACCAUGCCGCCUAAUAGCUUUUUGCUCGUCUUAUAAAACAUGAGGAUCACCCAUGUAAAACAUGUGGCGUGACCC [Maridi] (Eterna round: R96, puzzle: Sensor v3, turn-off variant 2)	MS2 coat protein	0.422
CCUUAGGGAGGAUAUACAUGAGGAUCACCCAUGUACCGCGGCGCGUUCACACGGGUGGGUAGAAGGCCCUCACU [Colors] (Eterna round: R97, puzzle: Exclusion 3)	MS2 coat protein	0.463
UUUAGUCGUGACAUGGGUGACAUGAGGAUCACCCAUGUCACAAGCUUGUUGCUCGUCUUAUAAUUAACCCAUGUCAC [LRO Sensor-off var1-15 mod of Stov1-13-A1 by Brourd] (Eterna round: R97, puzzle: Sensor, turn-off variant 1)	MS2 coat protein	0.0193
UGUAUACAUGAGGAUCACCCAUGUAAGGAUAUGCUUUAUUAUUAUUAUUAUUAUUGUUGCAGAAGGUACAUUAU [LRO-Excl01-07] (Eterna round: R97, puzzle: Exclusion 1)	MS2 coat protein	0.0264
CCGGUUGGCGCAGGAUAUACAUGAGGAUCACCCAUGUUCAUGAGCAUCAGCCAUGAGUUUUUGUUGUAGAAGGGUGGCCCGGCC (Eterna round: R96, puzzle: Exclusion NG 2)	MS2 coat protein	0.0196
CUGUUUUCCGCAGGAUAUGCUCCUCCAUUAUUUGCAGAAGGGCGUUGAACAUGAGGAUCACCCAUGUAUGUAAUUGAUUAUUGC [JR_ExcNG1_Sub070] (Eterna round: R96, puzzle: Exclusion NG 1)	MS2 coat protein	0.0277
GAGACGAAAGGAUAUACAUGAGGAUCACCCAUGUAUGAAACAUGAGAAGACACCGCUGGUAGAAGGUUUGGAAA [Eternabot (Original) Solution 46] (Eterna round: R97, puzzle: Exclusion 3)	MS2 coat protein	0.0268
GGAUAAAACUGAGGAUAUACGCACCACUAACGAGUAGAAGGCAGACAUGAGGAUCACCCAUGUGAGUUCUCAAUAAGAAACACG [Prohibition 66 - Jieux - Exclusion NG 1] (Eterna round: R96, puzzle: Exclusion NG 1)	MS2 coat protein	0.192
UCGUUCCGUGUAGGAUAUUGGCCUUCCUCGGGCCGAGAAGGACAUGAGGAUCACCCAUGUAUGCUAUUAUCGCGCGUGGCGCAC [Design 96] (Eterna round: R96, puzzle: Exclusion NG 1)	MS2 coat protein	0.141
AAUUAGUGAGGAUAUUUGAACAGUGGCAGUAGCCAGUGCAUGAAGAAGGCACAUGAGGAUCACCCAUGUUAUAA [EX4 #58] (Eterna round: R97, puzzle: Exclusion 4)	MS2 coat protein	0.0705
